- Test Target: CDK2/cyclin A (Homo sapiens)
- Method Summary: CDK2/cyclin A kinase assay, substrate pRb(773-928)
- Type: biochemical
- Recorded Conditions: Ala153 substitutions; relative to H-His-Ala-Lys-Arg-Arg-Leu-Ile-Phe-NH2 (=1); pRb substrate, [ATP] = 100 μM
Square brackets hold non-standard residues; d marks the D form. Tle = CC(C)(C)[C@H](N)C(=O)O
Measure: Relative activity Kinase Inhibition
One number for each entry.

Kindly give each listed record's Relative activity Kinase Inhibition.
1. H-His-Ile-Lys-Arg-Arg-Leu-Ile Phe-NH2 (H-HIKRRLIF-NH2)
2. H-His-Bug-Lys-Arg-Arg-Leu-Ile Phe-NH2 (H-H[Tle]KRRLIF-NH2; SMILES CC[C@H](C)[C@H](NC(=O)[C@H](CC(C)C)NC(=O)[C@H](CCCNC(=N)N)NC(=O)[C@H](CCCNC(=N)N)NC(=O)[C@H](CCCCN)NC(=O)[C@@H](NC(=O)[C@@H](N)Cc1c[nH]cn1)C(C)(C)C)C(=O)N[C@@H](Cc1ccccc1)C(N)=O)
3. H-His-Phe-Lys-Arg-Arg-Leu-Ile Phe-NH2 (H-HFKRRLIF-NH2)

Reply |
1. 0.5
2. 0.2
3. 0.5
